Tested on: E. faecium BCRC 15B0132 (VRE)
test name: microbe, parasite or virus in culture
Format: cell-based, Enterococcus faecium
condition description: BCRC 15, 16 h
Experimental: The antibacterial activities of peptides were determined by the standard broth microdilution method according to the guidelines of the Clinical and Laboratory Standards Institute (CLSI). Briefly, E. coli ATCC 25922 were incubated in MHB, and E. faecium BCRC 15B0132, VISA and VRSA strains were incubated in TSB overnight at 37 °C. […] After 16 h of incubation at 37 °C, the turbidity at OD600 was measured by the microplate reader. […]
Residues, ends and D or L forms follow the SMILES beside them.
measured parameter: MIC

INSERT INTO measurements (compound, experimental_result) VALUES
  ('CC(=O)N[C@@H](C)C(=O)N[C@@H](CCCCN)C(=O)N[C@@H](CCCNC(=N)N)C(=O)N[C@@H](Cc1c[nH]cn1)C(=O)N[C@@H](Cc1c[nH]cn1)C(=O)NCC(=O)N[C@@H](Cc1ccc(O)cc1)C(=O)N[C@@H](CCCCN)C(=O)N[C@@H](CCCNC(=N)N)C(=O)N[C@@H](CCCCN)C(=O)N[C@@H](Cc1ccccc1)C(=O)N[C@@H](Cc1c[nH]cn1)C(N)=O [P-113] (Ac-AKRHHGYKRKFH-NH2)', '>64 µg/mL');

----------
// reported MIC per item
Tested on: E. coli ATCC 25922
test name: microbe, parasite or virus in culture
Assay type: cell-based, Escherichia coli
condition description: ATCC 25922, 16 h
Non-standard residues stand in square brackets, D forms with d. Residues, ends and D or L forms follow the SMILES beside them. Bip = N[C@@H](Cc1ccc(-c2ccccc2)cc1)C(=O)O; Dip = N[C@H](C(=O)O)C(c1ccccc1)c1ccccc1; 2Nal = N[C@@H](Cc1ccc2ccccc2c1)C(=O)O
measured parameter: MIC

INSERT INTO assay_data (compound, experimental_result) VALUES
  ('CC(=O)N[C@@H](C)C(=O)N[C@@H](CCCCN)C(=O)N[C@@H](CCCNC(=N)N)C(=O)N[C@@H](Cc1c[nH]cn1)C(=O)N[C@@H](Cc1c[nH]cn1)C(=O)NCC(=O)N[C@@H](Cc1ccc(O)cc1)C(=O)N[C@@H](CCCCN)C(=O)N[C@@H](CCCNC(=N)N)C(=O)N[C@@H](CCCCN)C(=O)N[C@@H](Cc1ccccc1)C(=O)N[C@@H](Cc1c[nH]cn1)C(N)=O [P-113] (Ac-AKRHHGYKRKFH-NH2)', '>64 µg/mL'),
  ('CC(=O)N[C@@H](C)C(=O)N[C@@H](CCCCN)C(=O)N[C@@H](CCCNC(=N)N)C(=O)N[C@@H](Cc1ccc2ccccc2c1)C(=O)N[C@@H](Cc1ccc2ccccc2c1)C(=O)NCC(=O)N[C@@H](Cc1ccc(O)cc1)C(=O)N[C@@H](CCCCN)C(=O)N[C@@H](CCCNC(=N)N)C(=O)N[C@@H](CCCCN)C(=O)N[C@@H](Cc1ccccc1)C(=O)N[C@@H](Cc1ccc2ccccc2c1)C(N)=O [Nal-P-113] (Ac-AKR[2Nal][2Nal]GYKRKF[2Nal]-NH2)', '32 µg/mL'),
  ('CC(=O)N[C@@H](C)C(=O)N[C@@H](CCCCN)C(=O)N[C@@H](CCCNC(=N)N)C(=O)N[C@H](C(=O)N[C@H](C(=O)NCC(=O)N[C@@H](Cc1ccc(O)cc1)C(=O)N[C@@H](CCCCN)C(=O)N[C@@H](CCCNC(=N)N)C(=O)N[C@@H](CCCCN)C(=O)N[C@@H](Cc1ccccc1)C(=O)N[C@H](C(N)=O)C(c1ccccc1)c1ccccc1)C(c1ccccc1)c1ccccc1)C(c1ccccc1)c1ccccc1 [Dip-P-113] (Ac-AKR[Dip][Dip]GYKRKF[Dip]-NH2)', '64 µg/mL'),
  ('CC(=O)N[C@@H](C)C(=O)N[C@@H](CCCCN)C(=O)N[C@@H](CCCNC(=N)N)C(=O)N[C@@H](Cc1ccccc1)C(=O)N[C@@H](Cc1ccccc1)C(=O)NCC(=O)N[C@@H](Cc1ccc(O)cc1)C(=O)N[C@@H](CCCCN)C(=O)N[C@@H](CCCNC(=N)N)C(=O)N[C@@H](CCCCN)C(=O)N[C@@H](Cc1ccccc1)C(=O)N[C@@H](Cc1ccccc1)C(N)=O [Phe-P-113] (Ac-AKRFFGYKRKFF-NH2)', '>64 µg/mL'),
  ('CC(=O)N[C@@H](C)C(=O)N[C@@H](CCCCN)C(=O)N[C@@H](CCCNC(=N)N)C(=O)N[C@@H](Cc1ccc(-c2ccccc2)cc1)C(=O)N[C@@H](Cc1ccc(-c2ccccc2)cc1)C(=O)NCC(=O)N[C@@H](Cc1ccc(O)cc1)C(=O)N[C@@H](CCCCN)C(=O)N[C@@H](CCCNC(=N)N)C(=O)N[C@@H](CCCCN)C(=O)N[C@@H](Cc1ccccc1)C(=O)N[C@@H](Cc1ccc(-c2ccccc2)cc1)C(N)=O [Bip-P-113] (Ac-AKR[Bip][Bip]GYKRKF[Bip]-NH2)', '32 µg/mL');
